- study target: STAT5A (Homo sapiens)
- Construct: made in house; host or cells: HEK293 (transient transfection), unpurified extract
- Sequence (P42229 whole entry): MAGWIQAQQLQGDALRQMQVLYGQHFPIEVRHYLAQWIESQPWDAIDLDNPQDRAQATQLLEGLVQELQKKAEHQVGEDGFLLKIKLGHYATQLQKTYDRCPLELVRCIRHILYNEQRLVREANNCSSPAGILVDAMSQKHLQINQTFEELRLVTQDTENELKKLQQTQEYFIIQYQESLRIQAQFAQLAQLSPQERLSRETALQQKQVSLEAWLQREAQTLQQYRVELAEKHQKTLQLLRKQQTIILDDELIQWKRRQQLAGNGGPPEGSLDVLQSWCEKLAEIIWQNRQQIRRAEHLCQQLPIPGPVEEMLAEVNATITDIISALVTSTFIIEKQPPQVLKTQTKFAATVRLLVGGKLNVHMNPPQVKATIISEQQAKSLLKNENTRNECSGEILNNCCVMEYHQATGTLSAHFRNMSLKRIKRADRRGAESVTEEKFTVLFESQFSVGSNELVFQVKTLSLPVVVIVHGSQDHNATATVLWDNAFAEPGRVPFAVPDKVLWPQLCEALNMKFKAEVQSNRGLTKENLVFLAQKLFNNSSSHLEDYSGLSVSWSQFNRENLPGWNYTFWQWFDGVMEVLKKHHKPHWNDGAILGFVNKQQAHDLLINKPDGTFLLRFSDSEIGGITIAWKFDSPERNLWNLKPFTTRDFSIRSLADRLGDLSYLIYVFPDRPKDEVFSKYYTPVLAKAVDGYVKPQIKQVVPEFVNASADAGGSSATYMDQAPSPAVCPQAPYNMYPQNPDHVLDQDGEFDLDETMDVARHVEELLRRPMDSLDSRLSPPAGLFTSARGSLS
- assay details: biochemical
- Format: binding
- condition details: read-out: percent of DMSO vehicle control
Non-standard residues stand in square brackets, D forms with d. Residues, ends and D or L forms follow the SMILES beside them. *: point of attachment. pY = N[C@@H](Cc1ccc(OP(=O)(O)O)cc1)C(=O)O; Caffeoyl = O=C(/C=C/c1ccc(O)c(O)c1)*
measured quantity: percent of DMSO vehicle control at 10 µM (%)
// units = %; emit number, no label

Value of percent of DMSO vehicle control at 10 µM reported for the compound CC[C@H](C)[C@H](NC(=O)[C@H](CCC(=O)O)NC(=O)[C@H](CCC(=O)O)NC(=O)[C@H](Cc1ccc(OP(=O)(O)O)cc1)NC(=O)/C=C/c1ccc(O)c(O)c1)C(=O)N[C@@H](CCC(=O)O)C(=O)O [Caffeic acid-pYEEIE] (Caffeoyl-[pY]EEIE-OH) is 6.2

Value of percent of DMSO vehicle control at 10 µM reported for the compound CC(=O)N1CC[C@H]2CC[C@@H](C(=O)N[C@@H](CCC(N)=O)C(=O)NC(c3ccccc3)c3ccccc3)N2C(=O)[C@@H](NC(=O)c2cc3cc(C(F)(F)P(=O)(O)O)ccc3[nH]2)C1 [SI-109] is 101

Value of percent of DMSO vehicle control at 10 µM reported for the compound NC(=O)CC[C@H](NC(=O)[C@@H]1CC[C@@H]2CCN(C(=O)CCCCCC#Cc3cccc4c3CN(C3CCC(=O)NC3=O)C4=O)C[C@H](NC(=O)c3cc4cc(C(F)(F)P(=O)(O)O)ccc4[nH]3)C(=O)N21)C(=O)NC(c1ccccc1)c1ccccc1 (stereo partly shown) [SD-36] is 3.4

Value of percent of DMSO vehicle control at 10 µM reported for the compound CC(=O)N[C@@H](Cc1ccc(CP(=O)(O)O)cc1)C(=O)NC1(C(=O)N[C@@H](CC(N)=O)C(=O)NCCCc2c(O)ccc3ccccc23)CCCCC1 [CGP78850] is 84.9
